Values were extracted from patent US20220324953A1.

Entries and their kon values follow.
Target: T1, mouse CTGF (antigen of the Biacore assay) (mouse, UniProt P29268 26-348)
T1 construct: also called mouse CTGF protein
T1 sequence (looked up): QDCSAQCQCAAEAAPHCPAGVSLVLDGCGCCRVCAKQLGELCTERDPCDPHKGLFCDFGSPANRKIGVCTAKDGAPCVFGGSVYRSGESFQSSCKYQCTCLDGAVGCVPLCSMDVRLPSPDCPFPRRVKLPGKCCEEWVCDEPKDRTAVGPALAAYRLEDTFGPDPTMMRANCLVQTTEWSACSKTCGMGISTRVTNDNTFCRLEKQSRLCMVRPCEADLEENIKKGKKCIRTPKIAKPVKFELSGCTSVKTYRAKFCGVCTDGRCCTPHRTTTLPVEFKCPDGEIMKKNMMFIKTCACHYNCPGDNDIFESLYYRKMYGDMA
Test: Biacore, antibody captured on Protein A, mouse CTGF in flow, 1:1 fit
Number in M⁻¹ s⁻¹, nothing else.

Use these answered entries as a reference point.
>>> observed_measurement("Hu147-13wk (antibody, human IgG1, kappa, V domains shown) VH: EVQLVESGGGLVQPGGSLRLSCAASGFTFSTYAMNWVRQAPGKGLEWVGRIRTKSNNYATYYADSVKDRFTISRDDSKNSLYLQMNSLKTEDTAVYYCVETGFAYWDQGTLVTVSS VL: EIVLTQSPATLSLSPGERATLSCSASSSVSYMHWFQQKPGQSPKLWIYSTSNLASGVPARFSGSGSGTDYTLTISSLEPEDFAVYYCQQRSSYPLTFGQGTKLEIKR")
"5.73e+07"
>>> observed_measurement("Hu147-33wk (antibody, human IgG1, kappa, V domains shown) VH: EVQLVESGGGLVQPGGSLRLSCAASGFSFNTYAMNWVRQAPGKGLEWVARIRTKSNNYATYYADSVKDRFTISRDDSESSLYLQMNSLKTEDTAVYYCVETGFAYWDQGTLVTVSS VL: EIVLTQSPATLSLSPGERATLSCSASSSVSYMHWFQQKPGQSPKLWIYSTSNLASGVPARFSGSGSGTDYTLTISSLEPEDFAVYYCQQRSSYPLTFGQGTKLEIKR")
"9.01e+07"
>>> observed_measurement("Hu95-31wk (antibody, human IgG1, kappa, V domains shown) VH: EVQLVQSGAEVKKPGASVKVSCKASGFTFTNYDIHWVKQAPGQRLEWMGLVYPYNGGTAYNQKFKDKVTLTFDTSASTAYMELSSLRSEDTAVYYCARWGLIPGTTSYFDVWGQGTTVTVSS VL: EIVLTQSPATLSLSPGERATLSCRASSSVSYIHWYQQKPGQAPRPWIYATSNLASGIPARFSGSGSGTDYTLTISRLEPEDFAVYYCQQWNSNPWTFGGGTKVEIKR")
"7.84e+06"

Look up and report measured kon for this entry: Hu147-32wk (antibody, human IgG1, kappa, V domains shown) VH: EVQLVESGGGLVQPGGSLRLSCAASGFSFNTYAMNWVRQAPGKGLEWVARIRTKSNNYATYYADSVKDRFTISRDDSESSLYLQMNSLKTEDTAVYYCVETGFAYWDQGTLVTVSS VL: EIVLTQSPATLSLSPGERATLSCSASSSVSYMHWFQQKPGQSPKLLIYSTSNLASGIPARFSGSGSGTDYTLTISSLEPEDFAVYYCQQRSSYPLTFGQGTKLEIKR 1.37e+08

Look up and report measured kon for this entry: Hu147-31wk (antibody, human IgG1, kappa, V domains shown) VH: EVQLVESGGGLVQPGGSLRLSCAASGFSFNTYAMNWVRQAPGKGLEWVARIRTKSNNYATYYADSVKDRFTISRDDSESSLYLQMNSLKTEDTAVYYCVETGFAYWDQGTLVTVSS VL: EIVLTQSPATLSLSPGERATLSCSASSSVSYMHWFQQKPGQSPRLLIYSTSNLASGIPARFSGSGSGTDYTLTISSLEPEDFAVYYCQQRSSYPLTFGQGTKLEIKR 3.83e+07
